Test system: HOP-92 NSCLC
test.summary: NCI-60 one-dose screen, 48 h
experimental.context: 10 µM unless noted
Compounds without any hit were thinned out: in the full panel of roughly 83,000, 20% have a hit. Active and inactive are the calls of the source. The calls were made as follows: active = growth percent below 10; inactive = the rest.
// classify into Y = active, N = inactive

Completed entries (count: 4):
N#CC1=C(N)Oc2c(sc3c(Br)cccc23)C1c1ccc(Cl)cc1 (stereo unspecified)    N
Cc1ccc(C)n1-c1ccccc1-n1c(C)ccc1C    N
Cc1cc(N2CCN(CC(=O)Nc3ccc4c(ccn4C)c3)CC2)nc(N2CCCCCC2)n1    N
CCN(CC)CCn1c2ccc(OC)cc2c2sc3cc(OC)ccc3c(=O)c21    N

Exercise: Could you check what this test reported for "COC(=O)/C=C1/SC(=Nc2cccc(OC)c2)N(CCc2c[nH]c3ccc(O)cc23)C1=O" ?
Key: N

Exercise: Subsequent entry: "NC(=O)c1cc(I)ccc1NC(=O)/C=C/c1ccccc1"
Key: Y

Exercise: Subsequent entry: "CCOCCNC1=C(Cl)C(=O)c2ccccc2C1=O"
Key: N

Exercise: Subsequent entry: "CNC(=O)c1ccccc1Oc1nc(Nc2cc(OC)c(OC)c(OC)c2)ncc1Br"
Key: N

Exercise: Subsequent entry: "CC(C)Cn1cnc2c(=O)[nH]c(N)nc21"
Key: N

Exercise: Subsequent entry: CCOC(=O)C1=C(N)Oc2c(sc3c(F)cccc23)C1c1ccc(O)cc1 (stereo unspecified)
Key: N

Exercise: Subsequent entry: "Fc1cccc(Oc2ccc(Nc3ncnc4ccc(OCCCN5CCOCC5)cc34)cc2Cl)c1"
Key: N

* * *

System: HCC-2998 colon
test.summary: NCI-60 one-dose screen, 48 h (100 = growth as untreated, 0 = no growth, -100 = all killed)
experimental.context: 10 µM unless noted
Method: Growth inhibition of the HCC-2998 human tumor cell line is measured as a screen for anti-cancer activity. Cells are grown in 96 well plates and exposed to the test compound for 48 hours. Compounds are tested at a single concentration, which is 10^-5 M for most compounds. The reported endpoint is percent growth (GI% or GIPRCNT), where numbers from 0 - 100% represent growth inhibition, and numbers from -100% - 0 represent cell death. For example, a value of 40 represents 60% growth inhibition. […]
This is part of a sample that, as a whole, favours compounds with a hit. Of some 83,000 tested, about 20% had one in any assay.
In plain terms, low growth, meaning strictly below 40%, gives Y, and everything else gives N.

Completed entries (count: 3):
C=CCN=c1sc2c(n1NC(=O)c1cc3ccc1CCc1ccc(cc1)CC3)C(=O)c1ccccc1C2=O    Y
C1CCC([PH+](C2CCCCC2)C2CCCCC2[PH+](C2CCCCC2)C2CCCCC2)CC1.[Au].[CH-]1CCCCC1C1CCCC[N-]1 (stereo not drawn)    Y
Nc1ncnc2c1C(c1ccc(Br)cc1)c1sc3c(F)cccc3c1O2 (stereo not drawn)    N

Turning now to a further molecule:
Exercise: Quick check: growth of "Clc1cccc(Nc2ncnc3ccc(-c4cnc5[nH]ccc5c4)cc23)c1" under 40%?
Key: N

* * *

Test system: HCC-2998 colon
test.summary: NCI-60 one-dose screen, 48 h
experimental.context: 10 µM unless noted
The panel holds about 83,000 compounds, 20% with a hit somewhere; the sample as a whole holds those more often. The source made the active and inactive calls. The calls were made as follows: active = growth percent below 10; inactive = the rest.
// classify into active, inactive

O=C1c2ccc3c4c5ccc(c24)C(=O)N1CCCOCCCCOCCCNCc1ccc(cc1)CNCCCOCCCCOCCCN(C3=O)C5=O    active
COc1ccc(-c2cc(-c3ccc(Cl)cc3)c(C#N)c(=O)n2Cc2ccc(C(=O)Nc3ccccc3N)cc2)cc1    inactive
CCN(CC)c1ccc(\C=N/N=C(N)/C(N)=N\N=C/c2ccc(N(CC)CC)cc2)cc1    inactive

Turning now to a further molecule:
Exercise: Could you check what this test reported for "C#Cc1c2c(c(OC)c3c1OCO3)[C@H]([C@H]1OC(=O)c3c1ccc(OC)c3OC)N(C)CC2" ?
Key: inactive
